Numbers sourced from the supplement of paper PMC6555819.

test system: PPARg:RXRa DBDmut IVT, anti-RXR (DBD mutation: RXRa K156A/R161A, NR concentration 270 nM, RXRa partner concentration 90 nM); assay: PBM binding z-score (relative to random genomic background probes); higher = stronger binding; sequences stand for … in GC…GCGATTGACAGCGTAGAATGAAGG
endpoint-label: PBM binding z-score
Numbers only.

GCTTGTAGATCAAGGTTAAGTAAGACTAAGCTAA	1.5
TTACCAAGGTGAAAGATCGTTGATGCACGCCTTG	1.56
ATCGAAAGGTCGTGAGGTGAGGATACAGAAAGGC	0.406
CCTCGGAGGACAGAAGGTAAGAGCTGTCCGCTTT	-0.432
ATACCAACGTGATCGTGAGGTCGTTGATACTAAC	-0.625

Provide PBM binding z-score for all items below, preserving their order.
1. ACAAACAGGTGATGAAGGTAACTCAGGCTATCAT
2. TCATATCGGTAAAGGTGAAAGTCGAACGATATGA

Response line:
1. 1.05
2. 1.56

====

system: THRa:RXRa (NR concentration 90 nM, RXRa partner concentration 90 nM); assay: PBM binding z-score (relative to random genomic background probes); higher = stronger binding; sequences stand for … in GC…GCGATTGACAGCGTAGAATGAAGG
endpoint-label: PBM binding z-score
One number for each entry.

Please supply PBM binding z-score for each of the following items, keeping them in order.
1. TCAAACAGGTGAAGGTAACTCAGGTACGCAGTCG
2. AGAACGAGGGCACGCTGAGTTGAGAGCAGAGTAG
3. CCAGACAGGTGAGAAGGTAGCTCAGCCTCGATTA
4. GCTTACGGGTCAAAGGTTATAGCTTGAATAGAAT
5. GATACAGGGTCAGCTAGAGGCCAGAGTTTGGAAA

Response line:
1: 1.44; 2: 1.95; 3: -0.29; 4: 3.57; 5: 3.04

Short answer for `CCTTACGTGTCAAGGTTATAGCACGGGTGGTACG` : PBM binding z-score was 1.57

====

system: RARb homodimer (NR concentration 270 nM); assay: PBM binding z-score (relative to random genomic background probes); higher = stronger binding; sequences stand for … in GC…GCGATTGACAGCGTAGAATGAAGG
endpoint-label: PBM binding z-score
One number for each entry.

Please report PBM binding z-score for every entry that follows.
1. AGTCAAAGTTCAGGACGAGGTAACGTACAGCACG
2. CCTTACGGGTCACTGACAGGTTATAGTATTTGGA
3. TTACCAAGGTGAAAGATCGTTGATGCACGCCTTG
4. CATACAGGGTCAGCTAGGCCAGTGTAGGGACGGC
5. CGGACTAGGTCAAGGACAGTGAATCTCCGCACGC
6. GGAACGAGGGCCAAGTTGATAGCATCTGTCGACG
7. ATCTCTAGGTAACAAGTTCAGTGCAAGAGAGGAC
8. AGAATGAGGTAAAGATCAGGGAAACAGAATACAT

Response line:
1. 3.47
2. 3.11
3. 0.0757
4. 3.34
5. 2.94
6. -0.0615
7. 1.96
8. 0.102

Please look at the items below and tell me PBM binding z-score for each one, in order.
1. CGTCCAAGGTCAAGGTCAGTGAAAGAGACTCGAA
2. CATACAGGGTCAGCTACGCCAGAGTAGGGACGGC
3. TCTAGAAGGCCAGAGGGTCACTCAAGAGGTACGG

Response line:
1. 5.29
2. 2.9
3. 3.16

Notebook: `CCTTGCGGGTCAAGGTTATAGCACGGGTGGTACG` , PBM binding z-score read as 3.04
